- Test details: Dose-escalation study of Compound 1 pharmacokinetics in subjects with advanced malignancies (tablets of Formulations 1 and/or 3, fasted; food effect cohort)
- Format: in vivo, human
- Test conditions: human, plasma, oral, 600 mg, 600 mg BID, food effect cohort, Fasted, geometric mean; read-out: AUC0-12 h
Readout label: AUC(0-t) (µM·h)
Numbers only, in µM·h.

-- ask Given NS(=O)(=O)NCCNc1nonc1C(=NO)Nc1ccc(F)c(Br)c1 , state its recorded AUC(0-t).
-- reply 21.6

====

- Test details: Pharmacokinetics of Compound 1 in combination with MK-3475 in subjects with various cancers
- Type: in vivo, human
- Test conditions: human, plasma, oral, 100 mg BID, Diagnosis GU, steady state C1D8, mean ± SD; read-out: AUC0-12 h (converted)
Readout label: AUC(0-t) (µM·h)
One number for each entry, in µM·h.

-- ask Can you share its AUC(0-t)? I mean this compound: NS(=O)(=O)NCCNc1nonc1C(=NO)Nc1ccc(F)c(Br)c1
-- reply 4.98

====

- Test details: Pharmacokinetics of Compound 1 in combination with MK-3475 in subjects with various cancers
- Type: in vivo, human
- Test conditions: human, plasma, oral, 100 mg BID, Diagnosis DLBCL, steady state C1D8, individual values of 2 subjects
Readout label: Cmax

-- ask Return reported Cmax; argument: NS(=O)(=O)NCCNc1nonc1C(=NO)Nc1ccc(F)c(Br)c1 [Compound 1]
-- reply 883 nM

====

- Test details: Pharmacokinetics of Compound 1 in combination with MK-3475 in subjects with various cancers
- Assay type: in vivo, human
- Test conditions: human, plasma, oral, 100 mg, Cohort 5, 100 mg BID, steady state C1D8, geometric mean; read-out: AUC0-12 h (converted)
Readout label: AUC(0-t) (µM·h)
One number for each entry, in µM·h.

-- ask Item under review: NS(=O)(=O)NCCNc1nonc1C(=NO)Nc1ccc(F)c(Br)c1 . Reported AUC(0-t)?
-- reply 3.53

====

- Test details: Pharmacokinetics of Compound 1 in combination with MK-3475 in subjects with various cancers
- Format: in vivo, human
- Test conditions: human, plasma, oral, 100 mg, Cohort 3, 100 mg, first dose, median; read-out: tmax
Readout label: tmax (h)
Give bare numbers, in h.

-- ask GET /values?readout=tmax&item= NS(=O)(=O)NCCNc1nonc1C(=NO)Nc1ccc(F)c(Br)c1
-- reply 4

====

- Test details: Pharmacokinetics of Compound 1 in combination with MK-3475 in subjects with various cancers
- Format: in vivo, human
- Test conditions: human, plasma, oral, 25 mg, by dose, 25 mg BID, steady state C1D8, mean ± SD
- Procedure: The subjects were not limited to a specific cancers and study include subjects with various cancers. […] One treatment cycle consisted of 21 days. […] The RP2D was selected from the evaluated safety expansions. […] Pharmacokinetic samples were obtained at the visits of Cycle 1 Day 1, Cycle 1 Day 8 and Cycle 2 Day 1. […] The exact date and time of the PK blood draws were recorded in the eCRF along with the date and time of the last dose of study drug and details of the last meal preceding the blood draw. […]
Readout label: Cmax
Numeric answer plus unit only.

-- ask Fill blank: measured Cmax of the compound NS(=O)(=O)NCCNc1nonc1C(=NO)Nc1ccc(F)c(Br)c1 is ____.
-- reply 307 nM

====

- Test details: Dose-escalation study of Compound 1 pharmacokinetics in subjects with advanced malignancies (tablets of Formulations 1 and/or 3, fasted; food effect cohort)
- Type: in vivo, human
- Test conditions: human, plasma, oral, 300 mg, 300 mg BID, steady state, geometric mean
Readout label: Cmax (nM)
One number for each entry, in nM.

-- ask What measured Cmax goes with NS(=O)(=O)NCCNc1nonc1C(=NO)Nc1ccc(F)c(Br)c1 ?
-- reply 2440
